Target: human secretin receptor (hSCTR) (human, UniProt P47872 23-440)
Sequence (P47872 23-440): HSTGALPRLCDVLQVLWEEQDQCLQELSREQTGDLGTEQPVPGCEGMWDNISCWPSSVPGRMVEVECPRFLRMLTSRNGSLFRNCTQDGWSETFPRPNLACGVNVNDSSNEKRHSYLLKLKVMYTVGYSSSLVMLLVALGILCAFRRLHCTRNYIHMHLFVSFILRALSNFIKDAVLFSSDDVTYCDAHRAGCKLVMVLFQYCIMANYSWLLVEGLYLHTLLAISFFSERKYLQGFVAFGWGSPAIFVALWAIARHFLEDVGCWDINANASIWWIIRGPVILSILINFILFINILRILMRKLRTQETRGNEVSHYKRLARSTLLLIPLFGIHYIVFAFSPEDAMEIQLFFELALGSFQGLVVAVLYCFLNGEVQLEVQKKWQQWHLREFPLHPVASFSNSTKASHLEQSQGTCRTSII
Test: cell-based or functional assay
Numbered stars: 1 amine (or outer) side, 2 acyl side, 3 side chain; on linkers, the order of the positions; unused ones are H or OH. Square brackets hold non-standard residues; d marks the D form. Side chains are listed from the residue outwards. Ends that are not written are not given here. * marks the point of attachment. C20 diacid = O=C(O)CCCCCCCCCCCCCCCCCCC(=O)*; γGlu = O=C(O)[C@H](CCC(=O)[*:2])N[*:1]; AEEA = NCCOCCOCC(=O)O; Aib = CC(C)(N)C(=O)O
Measured pEC50 hSCTR, listed per entry for reference.

// solved cases for pEC50 hSCTR follow
- binder: "H[Aib]EGTFTSDVSYLKEEA[Aib]GQRFLEHLV-NH2 (not fully specified (residue 14)) [SEQ ID NO: 154]"
  pEC50 hSCTR: "5.4 -log M"
- binder: "H[Aib]EGTFTSDVSFLKE[Aib]AATQRFLEHLV-NH2 (not fully specified (residue 14)) [SEQ ID NO: 13]"
  pEC50 hSCTR: "6.5 -log M"
- binder: "H[Aib]EGTFTSDVSFLK([AEEA-AEEA-γGlu-C20 diacid])EFAA[Aib]QRFLEHLV-NH2 [SEQ ID NO: 27]"
  pEC50 hSCTR: "5.5 -log M"
- binder: "H[Aib]EGTFTSDVSRLK([AEEA-AEEA-γGlu-C20 diacid])ETAAAQRFLEHLV-NH2 [SEQ ID NO: 23]"
  pEC50 hSCTR: "6.8 -log M"
- binder: "H[Aib]EGTFTSDVSYLKEEA[Aib]LQRFLEKLV-NH2 (not fully specified (residue 14)) [SEQ ID NO: 147]"
  pEC50 hSCTR: "7.2 -log M"

Q: Returns the measured pEC50 hSCTR for the input binder. Input: H[Aib]EGTFTSDVSYLKE[Aib]AAQQRFLEHLV-NH2 (not fully specified (residue 14)) [SEQ ID NO: 94]
A: 6 -log M

Q: Returns the measured pEC50 hSCTR for the input binder. Input: H[Aib]EGTFTSDVSYLKEEA[Aib]SQRFLEHLV-NH2 (not fully specified (residue 14)) [SEQ ID NO: 134]
A: 5.6 -log M
